Provenance of the data: patent US8778935B2

Reported IC50 values are given for each entry in this list.
# TARGET: PI3K (p110α/p85α) (Homo sapiens)
# Construct: purchased Carna Biosciences 07CBS-0402A
# Sequence (P42336 whole entry): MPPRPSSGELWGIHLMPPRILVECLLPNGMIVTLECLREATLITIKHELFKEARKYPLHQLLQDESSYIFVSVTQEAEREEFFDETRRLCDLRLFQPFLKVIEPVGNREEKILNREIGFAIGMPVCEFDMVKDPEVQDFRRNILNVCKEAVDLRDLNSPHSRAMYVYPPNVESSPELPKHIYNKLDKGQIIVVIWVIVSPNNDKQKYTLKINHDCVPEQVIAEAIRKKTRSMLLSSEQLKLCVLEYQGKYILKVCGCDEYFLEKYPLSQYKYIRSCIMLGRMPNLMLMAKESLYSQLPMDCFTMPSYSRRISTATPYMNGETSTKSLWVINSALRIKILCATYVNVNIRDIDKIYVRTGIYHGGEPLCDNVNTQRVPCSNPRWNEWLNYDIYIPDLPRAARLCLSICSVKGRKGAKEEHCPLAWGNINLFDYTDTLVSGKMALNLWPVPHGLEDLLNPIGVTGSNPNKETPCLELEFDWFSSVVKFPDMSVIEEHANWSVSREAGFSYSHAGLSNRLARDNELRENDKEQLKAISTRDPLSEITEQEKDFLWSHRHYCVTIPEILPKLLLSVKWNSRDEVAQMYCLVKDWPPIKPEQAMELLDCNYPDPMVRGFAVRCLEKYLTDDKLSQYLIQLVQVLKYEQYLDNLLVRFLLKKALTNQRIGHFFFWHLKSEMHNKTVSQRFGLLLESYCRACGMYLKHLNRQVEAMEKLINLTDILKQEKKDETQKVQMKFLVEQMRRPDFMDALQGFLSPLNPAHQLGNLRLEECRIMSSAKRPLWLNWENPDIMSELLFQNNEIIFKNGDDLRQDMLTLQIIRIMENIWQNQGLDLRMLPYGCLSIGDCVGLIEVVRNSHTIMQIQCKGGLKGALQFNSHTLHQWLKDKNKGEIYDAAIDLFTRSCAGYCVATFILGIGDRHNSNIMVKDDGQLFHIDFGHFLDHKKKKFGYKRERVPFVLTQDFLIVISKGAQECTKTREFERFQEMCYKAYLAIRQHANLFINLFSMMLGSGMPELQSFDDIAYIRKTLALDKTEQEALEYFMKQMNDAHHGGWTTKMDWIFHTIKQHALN
# Sequence (P27986 whole entry partner): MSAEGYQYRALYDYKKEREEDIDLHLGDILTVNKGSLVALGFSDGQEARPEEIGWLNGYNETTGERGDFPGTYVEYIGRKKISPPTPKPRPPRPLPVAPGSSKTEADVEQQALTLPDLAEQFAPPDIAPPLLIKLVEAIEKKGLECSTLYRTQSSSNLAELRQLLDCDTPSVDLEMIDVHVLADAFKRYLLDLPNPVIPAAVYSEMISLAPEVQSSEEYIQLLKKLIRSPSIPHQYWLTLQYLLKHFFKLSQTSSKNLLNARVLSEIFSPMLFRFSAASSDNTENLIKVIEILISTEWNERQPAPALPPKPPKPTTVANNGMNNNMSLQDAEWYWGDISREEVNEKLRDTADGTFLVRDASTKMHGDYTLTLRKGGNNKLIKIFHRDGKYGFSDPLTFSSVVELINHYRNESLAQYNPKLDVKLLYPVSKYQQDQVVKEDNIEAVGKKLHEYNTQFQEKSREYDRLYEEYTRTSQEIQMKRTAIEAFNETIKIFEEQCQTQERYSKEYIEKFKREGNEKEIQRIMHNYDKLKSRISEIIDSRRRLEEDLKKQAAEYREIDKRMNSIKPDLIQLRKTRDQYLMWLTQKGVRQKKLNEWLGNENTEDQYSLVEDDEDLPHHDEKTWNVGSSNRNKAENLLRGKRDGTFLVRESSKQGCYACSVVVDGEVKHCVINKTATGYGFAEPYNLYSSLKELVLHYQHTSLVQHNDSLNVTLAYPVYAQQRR
# PROTOCOL_TEXT: PI3K Activity Assay (ADP Hunter Plus)
# Assay type: biochemical
# RUN_CONDITIONS: PI3Kα activity, quantitative results; read-out: PI3Kα IC50

| COMPOUND | IC50 / nM |
| --- | --- |
| CS(=O)(=O)N1CCN(Cc2cn3cc(-c4ccc(C#N)nc4)nc(N4CCOCC4)c3n2)CC1 | 3300 |
| COCCNC(=O)c1cn2cc(-c3cccc4[nH]ncc34)nc(N3CCOCC3)c2n1 | 66 |
| COC(=O)CC1COCCN1c1nc(-c2cnc(N)nc2)cn2cc(C)nc12 (centres unmarked) | 25400 |
| CN(C)CC(=O)N1CCN(Cc2cn3cc(-c4cnc(N)nc4)nc(N4CCOCC4)c3n2)CC1 | 34 |
| Nc1ncc(-c2cn3cc(CN4CCS(=O)(=O)CC4)nc3c(N3CCOCC3)n2)cn1 | 82 |
| CCOC(=O)N1CCC(NC(=O)c2cn3cc(-c4cnc(N)nc4)nc(N4CCOCC4)c3n2)CC1 | 3 |
| C[C@@H]1CN(C(=O)OC(C)(C)C)C[C@H](C)N1Cc1cn2cc(-c3cnc(N)nc3)nc(N3CCOCC3)c2n1 | 28 |
| Cc1cn2cc(-c3cnc(N)nc3)nc(N3CCOCC3)c2n1 | 110 |
| CC(C)(c1cn2cc(-c3cnc(N)nc3)nc(N3CCOCC3)c2n1)N1CCN(S(C)(=O)=O)CC1 | 16 |
| CS(=O)(=O)N1CCN(Cc2cn3c(Cl)c(-c4ccc(C#N)nc4)nc(N4CCOCC4)c3n2)CC1 | 3700 |
| COc1ccncc1-c1cn2cc(CN3CCN(S(C)(=O)=O)CC3)nc2c(N2CCOCC2)n1 | 10000 |

---

# TARGET: PI3K (p110α/p85α) (Homo sapiens)
# Construct: purchased Carna Biosciences 07CBS-0402A
# PROTOCOL_TEXT: PI3K Activity Assay (ADP Hunter Plus)
# Type: biochemical
# RUN_CONDITIONS: quantitative results of Table 4; read-out: PI3Kα IC50
pIC50: −log10 of the molar value.
Reported pIC50 values follow for various compounds
VALUE_TYPE: pIC50

| STRUCTURE | REPORTED_MEASUREMENT |
| --- | --- |
| CC(C)(C)OC(=O)N1CCC2(CCN(Cc3cn4cc(-c5cccc6[nH]ncc56)nc(N5CCOCC5)c4n3)CC2)CC1 | 5.14 |
| CC(=O)NCCNC(=O)c1cn2cc(-c3cccc4[nH]ncc34)nc(N3CCOCC3)c2n1 | 6.11 |
| O=C(NCCN1CCOCC1)c1cn2cc(-c3cccc4[nH]ncc34)nc(N3CCOCC3)c2n1 | 7.42 |
| c1cc(-c2cn3cc(CN4CCC5(CCNCC5)CC4)nc3c(N3CCOCC3)n2)c2cn[nH]c2c1 | 6.09 |

---

Listed below: pIC50 values for each entry.
# Tested on: phospho-Ser-473-Akt
# PROTOCOL_TEXT: PI3K signalling: AKT phosphorylation inhibition, Western blot analysis
# Format: cell-based
# RUN_CONDITIONS: Homo sapiens, cell assay, read-out: IC50 of AKT Phosphorylation Inhibition (p-AKT cell)
pIC50: −log10 of the molar value.

| COMPOUND | TARGET | pIC50 |
| --- | --- | --- |
| NC(=O)c1cn2cc(-c3cccnc3)nc(N3CCCCC3)c2n1 [2-119] | phospho-Ser-473-Akt | 7.06 |
| CS(=O)(=O)N1CCN(Cc2cn3cc(-c4cccc(O)c4)nc(N4CCOCC4)c3n2)CC1 [2-10] | phospho-Ser-473-Akt | 7.32 |
| CCOC(=O)c1cn2cc(-c3cccc(O)c3)nc(N3CCOCC3)c2n1 [2-01] | phospho-Ser-473-Akt | 6.88 |
| C[C@@H]1CN(S(C)(=O)=O)C[C@H](C)N1Cc1cn2cc(-c3cnc(N)nc3)nc(N3CCOCC3)c2n1 [2-219] | phospho-Ser-473-Akt | 6.61 |
| Oc1cccc(-c2cn3cc(C(F)(F)F)nc3c(N3CCOCC3)n2)c1 [2-13] | phospho-Ser-473-Akt | 6.15 |
| O=C(NCCN1CCOCC1)c1cn2cc(-c3cccc4[nH]ncc34)nc(N3CCOCC3)c2n1 [2-142] | phospho-Ser-473-Akt | 6.94 |
| CS(=O)(=O)N1CCN(Cc2cn3cc(-c4cccc5[nH]ncc45)nc(N4CCOCC4)c3n2)CC1 [2-17] | phospho-Ser-473-Akt | 6.41 |
| CS(=O)(=O)N1CCN(C(=O)c2cn3cc(-c4cccc5[nH]ncc45)nc(N4CCOCC4)c3n2)CC1 [2-16] | phospho-Ser-473-Akt | 6.30 |
| Nc1ncc(-c2cn3cc(CN4CCOCC4)nc3c(N3CCOCC3)n2)cn1 [2-175] | phospho-Ser-473-Akt | 6.33 |
| Nc1ncc(-c2cn3cc(CN4CCS(=O)(=O)CC4)nc3c(N3CCOCC3)n2)cn1 [2-222] | phospho-Ser-473-Akt | 7.02 |
| CCNC(=O)c1cn2cc(-c3cccc4[nH]ncc34)nc(N3CCOCC3)c2n1 [2-74] | phospho-Ser-473-Akt | 7.43 |
| COCCNC(=O)c1cn2cc(-c3cccc4[nH]ncc34)nc(N3CCOCC3)c2n1 [2-186] | phospho-Ser-473-Akt | 6.55 |
| Nc1ncc(-c2cn3cc(C4CC4)nc3c(N3CCOCC3)n2)cn1 [2-171] | phospho-Ser-473-Akt | 6.42 |
| Nc1ncc(-c2cn3cc(C(=O)NCCN4CCOCC4)nc3c(N3CCOCC3)n2)cn1 [2-164] | phospho-Ser-473-Akt | 7.47 |
| Nc1ncc(-c2cn3cc(C(=O)N[C@H]4CC[C@H](O)CC4)nc3c(N3CCOCC3)n2)cn1 [2-192] | phospho-Ser-473-Akt | 7.15 |
| CC(C)CS(=O)(=O)N1CCN(Cc2cn3cc(-c4cnc(N)nc4)nc(N4CCOCC4)c3n2)CC1 [2-221] | phospho-Ser-473-Akt | 6.87 |
| Nc1ncc(-c2cn3cc(C(F)(F)F)nc3c(N3CCOCC3)n2)cn1 [2-172] | phospho-Ser-473-Akt | 6.83 |
| CNC(=O)c1cn2cc(-c3cccc4[nH]ncc34)nc(N3CCOCC3)c2n1 [2-79] | phospho-Ser-473-Akt | 7.38 |
| Cc1ncc(-c2cn3cc(CN4CCN(S(C)(=O)=O)CC4)nc3c(N3CCOCC3)n2)cn1 [2-196] | phospho-Ser-473-Akt | 6.87 |
| CCOC(=O)N1CCC(NC(=O)c2cn3cc(-c4cnc(N)nc4)nc(N4CCOCC4)c3n2)CC1 [2-188] | phospho-Ser-473-Akt | 7.22 |
| COCCNC(=O)c1cn2cc(-c3cccnc3)nc(N3CCOCC3)c2n1 [2-154] | phospho-Ser-473-Akt | 5.98 |
| CCS(=O)(=O)N1CCN(Cc2cn3cc(-c4cnc(N)nc4)nc(N4CCOCC4)c3n2)CC1 [2-220] | phospho-Ser-473-Akt | 7.01 |
